# assayed-target: Heat shock factor protein 1 (Mus musculus, UniProt P38532)
# Sequence (P38532 whole entry): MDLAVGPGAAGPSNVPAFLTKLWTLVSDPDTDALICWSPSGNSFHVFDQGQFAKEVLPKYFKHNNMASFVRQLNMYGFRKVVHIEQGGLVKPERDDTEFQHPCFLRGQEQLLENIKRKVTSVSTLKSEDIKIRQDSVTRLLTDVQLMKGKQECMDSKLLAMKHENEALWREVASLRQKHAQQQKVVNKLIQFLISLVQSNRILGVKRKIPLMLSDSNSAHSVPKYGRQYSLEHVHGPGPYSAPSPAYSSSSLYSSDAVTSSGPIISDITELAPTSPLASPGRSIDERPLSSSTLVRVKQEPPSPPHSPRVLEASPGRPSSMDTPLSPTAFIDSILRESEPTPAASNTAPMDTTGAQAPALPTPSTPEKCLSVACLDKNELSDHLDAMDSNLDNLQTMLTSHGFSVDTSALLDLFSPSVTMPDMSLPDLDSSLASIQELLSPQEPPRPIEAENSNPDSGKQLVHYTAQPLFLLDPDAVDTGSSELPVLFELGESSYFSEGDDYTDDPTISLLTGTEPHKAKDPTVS
# method-notes: HSF1 potentiators in luciferase reporter cells, confirmation, cell-based, NIH3T3, luminescence, dose retest (AID 435004);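 note: stress induced by proteasome inhibitor MG132 added 30 min after compound; luciferase reporter driven by HSF1 response element in NIH3T3 cells; actives raise luminescence as potentiators of the MG132 stress response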
# Assay type: functional
Activity calls are given as the source filed them.
Thanks in advance; please answer with one of these: class 1 = active, class 0 = inactive

- line-notation: "O=C(CN1CCOCC1)N(c1ccccc1)c1ccc2ccccc2c1"
  qualitative-label: "class 0"
- line-notation: "Cc1ccc(-n2c(C)cc(C(=O)COc3c(CO)cc(F)cc3CO)c2C)cc1C"
  qualitative-label: "class 0"
- line-notation: "Cc1ccccc1CS(=O)(=O)c1nnc([C@H](CC(C)C)NC(=O)OC(C)(C)C)o1"
  qualitative-label: "class 0"
- line-notation: "Cc1ccc([N+](=O)[O-])cc1/N=N/c1c(-c2ccc([N+](=O)[O-])cc2)[nH]n(C(N)=S)c1=O"
  qualitative-label: "class 0"

For the next question, use this molecule.
Prompt: Which outcome was entered for the molecule Cc1cccc(C)c1NC(=O)c1nc(S(=O)(=O)Cc2ccccc2)ncc1Cl in this test?
Completion: class 1

====

Parameter: EC50. Scope: all listed entries.
# method-notes: cytotoxicity toward NIH3T3 fibroblasts, dose response, counter-screen, cell-based, ATP luminescence, mouse fibroblasts (AID 2010);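 note: cells exposed to compound for about 90 hours before reading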
# Type: functional

Example entries and their recorded answers appear below.
- molecule: "Cc1c(C)n(CCCN(C)C)c2ncnc(NCc3ccccc3)c12"
  EC50: "> 60 µM (not active)"
- molecule: "O=C(N/N=C/c1ccc([N+](=O)[O-])cc1)c1ccc(COc2ccccc2-c2ccccc2)cc1"
  EC50: "> 30 µM (not active)"
- molecule: "O=[N+]([O-])c1ccc(NC2CCN(Cc3ccccc3)CC2)c2ccncc12"
  EC50: "> 60 µM (not active)"
- molecule: "CCC(=O)Nc1ccc(C(=O)OCc2ccccc2Cl)cc1"
  EC50: "> 60 µM (not active)"
- molecule: "COc1ccc(-[n+]2c(-c3ccc(Br)cc3)cn3c2SC(C)C3)cc1 (configuration not stated)"
  EC50: "> 30 µM (not active)"
- molecule: "Cc1ccc(NCc2ccccc2)cc1 [N-BENZYL-4-METHYLANILINE]"
  EC50: "> 60 µM (not active)"
- molecule: "Cc1ccc(C)c(-c2nn(-c3cc(N4CCN(CCO)CC4)ccc3[N+](=O)[O-])c(=O)c3ccccc23)c1"
  EC50: "> 60 µM (not active)"
- molecule: "N=c1c2c(n(Cc3ccc(Cl)c(Cl)c3)c3c1CCC3)CCCC2"
  EC50: "> 60 µM (not active)"
- molecule: "Cc1cc(C)c(C(=O)Cn2cnc3cc([N+](=O)[O-])ccc3c2=O)cc1C"
  EC50: "> 60 µM (not active)"
- molecule: "COc1ccc(-[n+]2cc(-c3ccccc3)n3c2CCCCC3)cc1"
  EC50: "> 30 µM (not active)"

Prompt: What does the record list as EC50 for c1ccc(CSc2ccc(-c3ccccn3)nn2)cc1 ?
Completion: > 30 µM (not active)

Prompt: Entry under review: O=[N+]([O-])c1ccc(-[n+]2c(-c3ccccc3)cc(-c3ccccc3)cc2-c2ccccc2)cc1.[O-][Cl+3]([O-])([O-])[O-] . Reported EC50?
Completion: > 60 µM (not active)

====

# assayed-target: Vascular endothelial growth factor receptor 1 (Homo sapiens, UniProt P17948);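 note: measured within a kinome-wide profiling panel, FLT1 as the panel member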
# Sequence (P17948 whole entry): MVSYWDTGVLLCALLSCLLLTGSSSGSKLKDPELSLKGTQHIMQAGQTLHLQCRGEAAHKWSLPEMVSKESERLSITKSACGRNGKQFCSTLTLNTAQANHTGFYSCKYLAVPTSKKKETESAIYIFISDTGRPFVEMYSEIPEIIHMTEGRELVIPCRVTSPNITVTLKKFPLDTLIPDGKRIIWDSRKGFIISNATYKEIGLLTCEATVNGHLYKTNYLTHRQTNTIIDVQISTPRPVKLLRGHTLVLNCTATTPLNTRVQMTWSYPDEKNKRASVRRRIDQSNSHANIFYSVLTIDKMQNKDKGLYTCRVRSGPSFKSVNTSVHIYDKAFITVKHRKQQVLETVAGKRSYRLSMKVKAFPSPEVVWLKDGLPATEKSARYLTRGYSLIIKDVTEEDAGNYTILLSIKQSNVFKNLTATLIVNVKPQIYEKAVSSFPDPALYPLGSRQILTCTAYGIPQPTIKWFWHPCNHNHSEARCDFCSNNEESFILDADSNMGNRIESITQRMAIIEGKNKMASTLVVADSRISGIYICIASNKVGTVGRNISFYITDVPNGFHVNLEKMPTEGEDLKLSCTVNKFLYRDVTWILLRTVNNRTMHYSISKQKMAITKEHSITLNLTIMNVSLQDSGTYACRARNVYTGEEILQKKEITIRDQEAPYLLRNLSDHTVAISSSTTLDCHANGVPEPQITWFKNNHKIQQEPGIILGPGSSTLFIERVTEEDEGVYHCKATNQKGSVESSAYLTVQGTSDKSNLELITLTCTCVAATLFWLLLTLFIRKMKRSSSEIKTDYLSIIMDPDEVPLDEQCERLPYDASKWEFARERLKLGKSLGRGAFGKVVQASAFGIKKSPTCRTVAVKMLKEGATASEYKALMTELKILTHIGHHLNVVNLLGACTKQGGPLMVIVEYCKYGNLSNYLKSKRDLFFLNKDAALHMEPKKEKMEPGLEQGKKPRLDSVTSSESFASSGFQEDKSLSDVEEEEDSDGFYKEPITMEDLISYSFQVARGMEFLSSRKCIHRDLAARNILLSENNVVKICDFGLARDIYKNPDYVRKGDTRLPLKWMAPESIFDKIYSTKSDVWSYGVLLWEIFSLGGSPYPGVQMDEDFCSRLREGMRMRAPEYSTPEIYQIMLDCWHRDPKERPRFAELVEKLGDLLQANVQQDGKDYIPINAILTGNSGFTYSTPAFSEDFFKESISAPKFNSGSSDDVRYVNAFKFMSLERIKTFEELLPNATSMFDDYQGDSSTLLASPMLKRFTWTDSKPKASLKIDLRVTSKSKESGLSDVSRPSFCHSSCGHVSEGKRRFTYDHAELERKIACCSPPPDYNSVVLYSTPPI
# Assay type: functional
Calls of active or inactive are those of the source.
Collected Ki values appear next to each entry.

Known Ki results, listed for orientation:
- compound: "COC(C(=O)N1Cc2[nH]nc(NC(=O)c3ccc(N4CCN(C)CC4)cc3)c2C1)c1ccccc1 (centres undefined)"
  assayed-target: "Vascular endothelial growth factor receptor 1 (Homo sapiens, UniProt P17948)"
  property-name: "Ki"
  test-result: "0.0398 µM (active)"
- compound: "NC1CCC(Nc2nccc(-c3c[nH]c4ncccc34)n2)CC1 (centres undefined)"
  assayed-target: "Vascular endothelial growth factor receptor 1 (Homo sapiens, UniProt P17948)"
  property-name: "Ki"
  test-result: "> 0.398 µM (inactive)"
- compound: "OCc1cc(-c2ccc3[nH]ncc3c2)on1"
  assayed-target: "Vascular endothelial growth factor receptor 1 (Homo sapiens, UniProt P17948)"
  property-name: "Ki"
  test-result: "25.1 µM (active)"

Prompt: Find the recorded Ki belonging to CC(C)(O)c1cn(-c2ccc3[nH]ncc3c2)nn1 and report it.
Completion: 79.4 µM (active)

Numbers sourced from ChEMBL document CHEMBL1201862.
